Tested on: MCF7
assayExplanation: NCI tumour cell line growth inhibition, 48 h
Counter-ions that a name gives are not always drawn. Calls of active or inactive are those of the source. Cut-off read from the data, not from the text of the source: active = GI50 up to about 1.1 µM and inactive = higher.
Outcome codes: YES (active), NO (inactive)

# compound, assignedClass
data = [
    ("CC(C)(CCCCC(C)(C)C1NC(=O)N1)C1NC(=O)N1", "NO"),
    ("COc1cc(=O)n2c3ccccc3n(C)c2c1C#N", "NO"),
    ("CN1CCN(c2cc3nc4cc(O)cc(O)c4c(O)c3cc2N)CC1", "NO"),
    ("Cc1cc(S(=O)(=O)Nc2nc3ccccc3[nH]2)c(S)cc1Cl", "NO"),
    ("Oc1c(CN2CCCC2)ccc2cccnc12", "NO"),
    ("CNCCC=C1c2ccccc2CCc2ccccc21 [NORTRIPTYLINE HYDROCHLORIDE]", "NO"),
    ("CC(=O)OC1C2CCC3C(C)(O)C4CC(O)C(C)(C)C4(O)C(O)CC13CC2(C)O (centres undefined)", "NO"),
    ("c1ccc2c(c1)cc1ccc3cccc4ccc2c1c34", "YES"),
    ("Oc1ccc2ccccc2c1CN(Cc1c(O)ccc2ccccc12)C1CCCCC1", "NO"),
]

====

// values below are reported GI50
Test system: A498
assayExplanation: NCI tumour cell line growth inhibition, 48 h
Calls of active or inactive are those of the source. Cut-off read from the data, not from the text of the source: active = GI50 up to about 1.1 µM and inactive = higher.

# compound, targetOfAssay, GI50
records = [
    ("CC(C)[Si]1(C(C)C)OCC2OC(n3ccc(=O)[nH]c3=O)C([Se]c3ccccc3)C2O[Si](C(C)C)(C(C)C)O1 (stereo not given)", "A498", "7.87 µM (inactive)"),
    ("O=C1Oc2cc3c(c4cccc1c24)OCN(c1ccc(Cl)cc1)C3", "A498", "> 100 µM (inactive)"),
    ("CCCCn1c(C)c(C(=O)OCC)c2cc(OCc3ccc(C(=O)Nn4c(C)ccc4C)cc3)c(Br)cc21", "A498", "> 100 µM (inactive)"),
    ("N#Cc1c2c(c(N=P(c3ccccc3)(c3ccccc3)c3ccccc3)n3c1nc1ccccc13)CCCC2", "A498", "20.2 µM (inactive)"),
    ("CCOC(=O)/C(=C\\NCC(OCC)OCC)c1nc2ccccc2[nH]1", "A498", "48.6 µM (inactive)"),
]

====

System: SNB-19
assayExplanation: NCI tumour cell line growth inhibition, 48 h
Activity calls are given as the source filed them. Rule as the data show it: active = GI50 up to about 1.1 µM and inactive = higher.
// values below are reported GI50

# compound, GI50
measured = [
    ("N#Cc1nc(C#N)c(NC(=O)c2ccccc2C(=O)O)[nH]1", "> 100 µM (inactive)"),
    ("N#Cc1nc(/C=C/c2cccnc2)oc1N", "> 100 µM (inactive)"),
    ("COc1cc2ccc1OCc1cccc(n1)COc1ccc(cc1OC)/C=N\\CCNCCNCC/N=C\\2", "> 100 µM (inactive)"),
    ("CC(C)(C)[Si](C)(C)OCC1C=CC(n2cnc3c(N)ncnc32)O1 (stereo not given)", "94.2 µM (inactive)"),
    ("O=C(Nc1ccccc1)N1C(c2ccccc2)=N[C@@H](c2ccccc2)[C@@H]1c1ccccc1", "31.6 µM (inactive)"),
]

====

// values below are reported GI50
Tested on: SK-MEL-28
assayExplanation: NCI tumour cell line growth inhibition, 48 h
Calls of active or inactive are those of the source. No stated cut-off is given here; in the data, active = GI50 up to about 1.1 µM and inactive = higher.
testReadout: GI50

# compound, testReadout, result
rows = [
    ("CC(CN(C)C)C(=O)c1ccccc1C(=O)O (centres undefined)", "GI50", "31.2 µM (inactive)"),
    ("COc1cc(/C=C2\\C[C@H]3[C@@H]4CCC5=CC(=O)CC[C@]5(C)[C@H]4CC[C@]3(C)C2=O)cc(OC)c1OC", "GI50", "15.9 µM (inactive)"),
    ("O=C(O)c1cncc(C(=O)O)c1", "GI50", "> 100 µM (inactive)"),
    ("N#CC1(CCCCl)CCCCC1", "GI50", "> 100 µM (inactive)"),
    ("COc1ccc(/C=C/c2sc3ccccc3[n+]2CCCCI)cc1OC", "GI50", "> 10 µM (inactive)"),
    ("COc1ccc2c(n1)Sc1nc3ccccc3nc1N2", "GI50", "> 100 µM (inactive)"),
    ("COC(=O)C1=C(C(=O)OC)C2(CCCCCC2=O)OC1=O (centres undefined)", "GI50", "> 100 µM (inactive)"),
    ("Nc1ccc(C(=O)O)cc1.Nc1nc(N)c2nc[nH]c2n1", "GI50", "33 µM (inactive)"),
    ("CC(C)(C)NC(=O)/C(=C\\Sc1ccccc1)c1ccc2c(c1)OCO2", "GI50", "49 µM (inactive)"),
    ("O=S1(=O)c2ccccc2Oc2ccc(C(/C=N/O)=N/O)cc21", "GI50", "56.8 µM (inactive)"),
    ("Cc1nc2c(=S)[nH]ncc2[nH]1", "GI50", "> 100 µM (inactive)"),
    ("c1ccc(C2=Nc3cccc4cccc(c34)N2)cc1", "GI50", "> 79.1 µM (inactive)"),
    ("O=C(COC(=O)c1cccc2c(=O)c3ccccc3[nH]c12)Nc1ccc(C(=O)O)cc1", "GI50", "> 100 µM (inactive)"),
    ("Cc1cccc(C(C)O)n1 (centres undefined)", "GI50", "> 100 µM (inactive)"),
    ("C=CC1(c2ccc3ccccc3c2)OCC(CC)O1 (centres undefined)", "GI50", "> 100 µM (inactive)"),
    ("N#C[BH2-][n+]1cn(C2CC(O)C(COP(=O)(O)OC3CC(n4cnc5c(=O)[nH]c(N)nc54)OC3CO)O2)c2nc(N)[nH]c(=O)c21 (centres undefined)", "GI50", "> 100 µM (inactive)"),
    ("CC(O)C1OC(O)C2OC(C)(C)OC12 (centres undefined)", "GI50", "> 100 µM (inactive)"),
    ("CN(C)CCNC(=O)c1cccc2nc3cccc(F)c3nc12", "GI50", "3.01 µM (inactive)"),
    ("CC(=O)Nc1sc(Br)cc1S(=O)(=O)c1ccc(Cl)cc1", "GI50", "57.3 µM (inactive)"),
    ("NC(CC1=CS(=O)(=O)c2ccc(Cl)cc21)C(=O)O (centres undefined)", "GI50", "> 100 µM (inactive)"),
    ("CC1(CC(=O)O)OC2CCCCCC2O1.NCc1ccccc1 (centres undefined)", "GI50", "> 100 µM (inactive)"),
    ("C=C1CCCCCCCCCCC12SCCC2CCCCSC (centres undefined)", "GI50", "26.5 µM (inactive)"),
    ("CC1=Nn2c(nnc2-c2ccc(N)cc2)NC(C)(C)C1", "GI50", "> 100 µM (inactive)"),
    ("O=C1c2ccccc2C2(c3ccc(F)cc3)NCCN12 (centres undefined)", "GI50", "> 100 µM (inactive)"),
]

====

// values below are reported GI50
Tested on: UO-31
assayExplanation: NCI tumour cell line growth inhibition, 48 h
Calls of active or inactive are those of the source. No stated cut-off is given here; in the data, active = GI50 up to about 1.1 µM and inactive = higher.

# molecule, targetOfAssay, GI50
records = [
    ("COc1ccc(/C=N/c2ccc(-c3nc4ccccc4s3)cc2)cc1OC", "UO-31", "27.5 µM (inactive)"),
    ("CCOC(=O)CCNC(=O)c1cc(C)cc2c1Oc1c(cc(C)cc1C(=O)NCCC(=O)OCC)S2", "UO-31", "> 100 µM (inactive)"),
    ("O=C(Cn1nc(Br)c(Br)c1Br)c1ccccc1", "UO-31", "18.2 µM (inactive)"),
    ("N#C/C(=C\\c1cc(O)ccc1O)C(N)=O", "UO-31", "35.7 µM (inactive)"),
    ("Cc1cccc2c(=O)c3cccc([C@H](C)C(=O)O)c3oc12", "UO-31", "> 100 µM (inactive)"),
    ("CCSC1=C(C)N(/C=N/C(C)(C)C)CC1", "UO-31", "> 100 µM (inactive)"),
    ("Cn1c([N+](=O)[O-])cnc1CN1CCN(CCO)CC1", "UO-31", "> 100 µM (inactive)"),
    ("CC(=O)O[C@H]1CC[C@@]2(C)C(=CC[C@@H]3[C@@H]2CC[C@]2(C)c4c(cc(C#N)c(=N)n4C(C)=O)C[C@@H]32)C1", "UO-31", "22 µM (inactive)"),
    ("CC(=O)Oc1ccc(C2COc3cc(OC(C)=O)c(OC(C)=O)cc3C2)cc1 (stereo not given)", "UO-31", "22.3 µM (inactive)"),
    ("CCCc1c(C(=O)OCC)[nH]c(-c2ccc(-c3[nH]c(C(=O)OCC)c(CCC)c3C(=O)OCC)s2)c1C(=O)OCC", "UO-31", "8.97 µM (inactive)"),
    ("C/C(=N\\NC(=O)CC#N)c1c(O)cc(C)oc1=O", "UO-31", "> 100 µM (inactive)"),
    ("CCN(CC)CCNC(=O)c1nn(C)c(=S)[nH]c1=S", "UO-31", "> 100 µM (inactive)"),
    ("Cc1ccc(S(=O)(=O)OC2=C/C(=N\\c3onc(C)c3C)c3ccccc3C2=O)cc1", "UO-31", "17 µM (inactive)"),
    ("Cn1nc(-c2ccccc2)c2c(-c3ccccc3)c3cc(Cl)ccc3nc21", "UO-31", "> 100 µM (inactive)"),
    ("O=C(O)c1ccccc1C(=O)NCC1S(=O)(=O)OCCOS1(=O)=O", "UO-31", "> 100 µM (inactive)"),
    ("C1=c2ccccc2=C2C(=C(c3ccccc3)C(c3ccccc3)=NN2c2ccccc2)S1", "UO-31", "> 100 µM (inactive)"),
    ("O=C1[C@H]2ON(c3ccccc3)C(c3cccc([N+](=O)[O-])c3)[C@H]2C(=O)N1c1ccc(Cc2ccc(N3C(=O)[C@@H]4ON(c5ccccc5)C(c5cccc([N+](=O)[O-])c5)[C@@H]4C3=O)cc2)cc1 (stereo not given in full)", "UO-31", "> 100 µM (inactive)"),
    ("CCOC(=O)C(Cc1ccccc1)NC(=O)c1nc[nH]c1/N=N/N(C)C (stereo not given)", "UO-31", "> 100 µM (inactive)"),
    ("CN1CCc2[nH]c3ccccc3c2C1", "UO-31", "> 100 µM (inactive)"),
    ("CCCCc1c2c(nc3c1CCC/C3=C\\c1ccccc1)C(=O)C(CN(C)C)CC2 (stereo not given)", "UO-31", "18.9 µM (inactive)"),
]

Numbers sourced from ChEMBL document CHEMBL1201862.
